- procedure_summary: solvent given as SMILES
- study_conditions: in CN(C)C=O
result_type: fluorescence lifetime (ns)

Please review the entries below; each comes with its answer.
Cc1ccc(-c2ccc(/C=C/c3cccn3C)cn2)nc1 : 0.65
O=C1/C(=C2\Sc3ccccc3C2=O)Sc2ccccc21 : 6.9
Cc1ccc(C2CC(c3ccc(O)cc3)=NN2c2ccc(S(N)(=O)=O)cc2)cc1 (configuration not stated) : 2.59

(1) CCNc1cc2oc3c/c(=[NH+]\CC)c(C)cc-3c(-c3ccccc3C(=O)OCC)c2cc1C
(2) O=C(O)c1c2ccccc2c(C(=O)O)c2ccccc12
Higher fluorescence lifetime between 1 and 2 ? Reply with the label of the item you choose.
2
